# Test system: SN12C renal
# Experiment Description: NCI-60 one-dose screen, 48 h
# Assay Setup: 10 µM
# Description: Growth inhibition of the SN12C human tumor cell line is measured as a screen for anti-cancer activity. Cells are grown in 96 well plates and exposed to the test compound for 48 hours. Compounds are tested at a single concentration, which is 10^-5 M for most compounds. The reported endpoint is percent growth (GI% or GIPRCNT), where numbers from 0 - 100% represent growth inhibition, and numbers from -100% - 0 represent cell death. For example, a value of 40 represents 60% growth inhibition. […]
Compounds without any hit were thinned out: in the full panel of roughly 83,000, 20% have a hit. The source made the active and inactive calls. The calls were made as follows: active = growth percent below 10; inactive = the rest.
Output constraint: value belongs to T = active, F = inactive

[[record]]
compound = "CC(C)=CCc1cc(O)cc2c1OC(C=C(C)C)C1=C2C(=O)C2=C(C1=O)S(=O)(=O)CCN2 (configuration not stated)"
system_under_test = "SN12C renal"
cat = "T"

[[record]]
compound = "COc1cc(NC(=O)CSc2nc3ccccc3c(=O)n2CCc2ccccc2)cc(OC)c1OC"
system_under_test = "SN12C renal"
cat = "F"

[[record]]
compound = "CCOC1(OCC)OC(c2ccccc2)=C(C#N)C(/C=C\\c2ccccc2)C1(OCC)OCC (configuration not stated)"
system_under_test = "SN12C renal"
cat = "F"

[[record]]
compound = "COc1cc(/C(=C2/O[C@@H]([C@H]3COC(C)(C)O3)[C@H]3OC(C)(C)O[C@@H]23)c2ccc3ccccc3c2)cc(OC)c1OC"
system_under_test = "SN12C renal"
cat = "F"


# next compound below
IN: // outcome(item) with item = `C#Cc1ccc(-n2c(/C=C/c3ccc(O)cc3)nc3ncccc3c2=O)cc1`
OUT: F

----------
# Tested on: PC-3 prostate
# Experiment Description: NCI-60 one-dose screen, 48 h
# Assay Setup: 10 µM
About 83,000 compounds went through this panel and 20% of them were active in at least one assay; those are over-represented in the sample as a whole. Active and inactive are the calls of the source. How the source made its calls: active means growth percent below 10; inactive means the rest.
Use one of these outcomes when replying: Y for active, N for inactive

The following compounds have reported results that may help.
[[record]]
compound = "FC(F)(F)c1ccc(-c2cnc(-n3cc(COCCN4CCCCC4)nn3)nc2NC2CCCCCC2)cc1"
cat = "Y"

[[record]]
compound = "CCCCCCCCN(CCCCCCCC)CCCCCCCCCN1CCCc2cc(OC)ccc21"
cat = "N"

[[record]]
compound = "CCN1CCN(c2nc3ccccc3c3c(=O)c4ccccc4sc23)CC1"
cat = "N"

[[record]]
compound = "O=C1Nc2ccc(Cl)cc2/C1=C\\c1c(-c2ccc(Cl)cc2)nc2sc(C3CC3)nn12"
cat = "N"

[[record]]
compound = "O=C1OCC2=C1C(c1cccc(Cl)c1)c1cc3c(cc1N2CCO)CCC3 (centres undefined)"
cat = "N"


IN: Tell me the recorded outcome of this test for `N#Cc1ncc(-c2cc(F)c(F)c(F)c2)c(NC2CCCCCC2)n1` .
OUT: N

IN: State the result this test recorded for `O=C1N=NC2=C1c1c3ccccc3c(O)n1CC2` .
OUT: N

----------
# Test system: UACC-257 melanoma
# Experiment Description: NCI-60 one-dose screen, 48 h (100 = growth as untreated, 0 = no growth, -100 = all killed)
# Assay Setup: 10 µM
About 83,000 compounds went through this panel and 20% of them were active in at least one assay; those are over-represented in the sample as a whole. Activity calls are given as the source filed them. The calls were made as follows: active = growth percent below 10; inactive = the rest.
Attribute Measured: growth

[[record]]
compound = "Cc1cc2c(C)c3cc(C)c(N)cc3nc2cc1N"
attribute_measured = "growth"
observed_value = "18.9% (inactive)"

[[record]]
compound = "COc1cc(-c2cc(/C=C/C(=O)c3ccc(N)cc3)[nH]n2)cc(OC)c1OC"
attribute_measured = "growth"
observed_value = "29.2% (inactive)"

[[record]]
compound = "CCCCC(CCCCCC(CCCC)NCc1ccc2c(c1)OCO2)NCc1ccc2c(c1)OCO2 (stereo not drawn)"
attribute_measured = "growth"
observed_value = "-86.9% (active)"

[[record]]
compound = "C#Cc1ccc(-n2c(/C=C/c3ccc4ccccc4n3)nc3ncccc3c2=O)cc1"
attribute_measured = "growth"
observed_value = "-72.9% (active)"

[[record]]
compound = "O=C(c1cccs1)c1ccccc1Cc1ccccc1"
attribute_measured = "growth"
observed_value = "92.8% (inactive)"

[[record]]
compound = "COc1ccc2c(c1)N(CCO)C1=C(C(=O)OC1)C2c1ccc(OC)c(OC)c1 (stereo not drawn)"
attribute_measured = "growth"
observed_value = "53.7% (inactive)"

[[record]]
compound = "CCCCCCc1cc(N=Nc2ccc(S(=O)(=O)Nc3cc(C)nc(C)n3)cc2)c(O)cc1O"
attribute_measured = "growth"
observed_value = "102% (inactive)"

[[record]]
compound = "COc1ccc(-c2nc(-c3nc4cc(Cl)c(Cl)cc4[nH]3)c3ccccn23)cc1"
attribute_measured = "growth"
observed_value = "63.6% (inactive)"

[[record]]
compound = "COc1cc(NC(=O)CCSc2nc3ccc(C)cc3c(=O)n2Cc2ccccc2)cc(OC)c1OC"
attribute_measured = "growth"
observed_value = "57.1% (inactive)"

[[record]]
compound = "CNc1ccc(CSc2ccc(C)cc2)cc1"
attribute_measured = "growth"
observed_value = "93% (inactive)"


IN: May I ask what growth has been recorded for `Cn1c(N)c(N=Nc2ccc(S(=O)(=O)Nc3nccs3)cc2)c(=O)n(C)c1=O` ?
OUT: 95.6% (inactive)

IN: Any idea what growth was measured for COc1ccc(CN2CCC(N3CCCC3=O)c3cc(Cl)ccc32)cc1 (stereo not drawn) ?
OUT: 112% (inactive)

IN: Param item = `CCN(CC)CCNc1ccc(CO)c2oc3cc(Cl)ccc3c(=O)c12` ; retrieve measured growth.
OUT: -0.905% (active)

IN: Which growth is reported for this compound? `COc1ccc([N+](=O)[O-])c(C(=O)O)c1`
OUT: 110% (inactive)

IN: Item O=C(CC(C(=O)c1ccccc1)N1CCOCC1)c1ccccc1 (stereo not drawn) has what recorded growth?
OUT: 93.8% (inactive)
